# EXPERIMENTAL SYSTEM: hPK-M2 (Homo sapiens, UniProt P14618)
# Sequence (P14618 whole entry): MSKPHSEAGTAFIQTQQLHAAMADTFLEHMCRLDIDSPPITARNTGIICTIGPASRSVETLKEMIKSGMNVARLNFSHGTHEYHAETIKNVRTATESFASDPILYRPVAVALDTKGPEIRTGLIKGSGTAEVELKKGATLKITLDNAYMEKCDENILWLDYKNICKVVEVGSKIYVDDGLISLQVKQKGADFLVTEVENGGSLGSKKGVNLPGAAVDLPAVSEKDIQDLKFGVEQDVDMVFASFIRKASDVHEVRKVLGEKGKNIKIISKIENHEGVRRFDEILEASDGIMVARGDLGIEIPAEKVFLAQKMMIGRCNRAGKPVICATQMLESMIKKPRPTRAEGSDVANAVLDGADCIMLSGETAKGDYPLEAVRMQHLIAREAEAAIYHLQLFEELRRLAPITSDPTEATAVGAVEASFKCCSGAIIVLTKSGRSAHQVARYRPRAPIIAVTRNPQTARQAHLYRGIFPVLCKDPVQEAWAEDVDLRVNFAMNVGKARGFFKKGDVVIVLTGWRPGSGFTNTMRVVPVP
# PROTOCOL DETAILS: Luminescent pyruvate kinase-luciferase coupled assay (KinaseGlo)
# Assay type: biochemical
# CONDITION PARAMETERS: luminescent pyruvate kinase-luciferase coupled assay (KinaseGlo), tables; read-out: hPK, M2 AC50
Lab note: cut-off is 300 nM. Strictly less in AC50 is fulfilled. Exactly 300 nM or more is not fulfilled.

Examples from the recorded data:
> print(dat)
                                   compound  qualitative.label
1    Cc1ccc(Cn2ncc3c4sc(C)cc4n(C)c3c2=O)cc1      not fulfilled
2  COc1cc(F)c(S(=O)(=O)N2CCN(S(=O)(=O)c3ccc4c(c3)OCCO4)CC2)c(F)c1          fulfilled
3  Cc1cc2c(s1)c1cnn(Cc3ccc(Cl)cc3)c(=O)c1n2C      not fulfilled

input: Is 300 nM strictly greater than the compound's reported AC50? compound: O=S(=O)(c1ccc2c(c1)OCCO2)N1CCN(S(=O)(=O)c2ccccc2F)CC1
output: fulfilled

input: Is 300 nM strictly greater than the compound's reported AC50? compound: CC(O)c1cc2c(s1)c1cnn(Cc3ccccc3F)c(=O)c1n2C (centres unmarked)
output: fulfilled

* * *

Please go through the items and note down their AC50.
# EXPERIMENTAL SYSTEM: hPK-M2 (Homo sapiens, UniProt P14618)
# PROTOCOL DETAILS: Luminescent pyruvate kinase-luciferase coupled assay (KinaseGlo)
# Type: biochemical
# CONDITION PARAMETERS: luminescent pyruvate kinase-luciferase coupled assay (KinaseGlo), tables; read-out: hPK, M2 AC50

Completed entries (count: 5):
> print(dat)
                                 cpd.smiles  recorded.endpoint  recorded.measurement
1  Cn1c2cc([N+](=O)[O-])sc2c2cnn(Cc3ccccc3F)c(=O)c21               AC50              0.018 µM
2  Nc1ccc(S(=O)(=O)N2CCCN(S(=O)(=O)c3ccc4c(c3)OCCO4)CC2)cc1               AC50              0.103 µM
3  Cc1cc2c(s1)c1cnn(Cc3ccc(F)c(F)c3F)c(=O)c1n2C               AC50              0.174 µM
4  O=S(=O)(c1ccccc1)N1CCN(S(=O)(=O)c2ccc3c(c2)OCCO3)CC1               AC50              0.202 µM
5  CCCc1cc(F)c(S(=O)(=O)N2CCN(S(=O)(=O)c3ccc4c(c3)OCCO4)CC2)cc1F               AC50              0.757 µM

Look at each molecule and report its AC50.
1. Cc1cc2c(s1)c1cnn(Cc3ccc(F)cc3F)c(=O)c1n2C
2. O=S(=O)(N[C@H]1CC[C@@H](NS(=O)(=O)c2c(F)cccc2F)CC1)c1ccc2c(c1)OCCO2
3. O=S(=O)(c1cccc(C(F)(F)F)c1)N1CCN(S(=O)(=O)c2ccc3c(c2)OCCO3)CC1
4. Cc1cc2c(s1)c1cnn(Cc3ccccc3F)c(=O)c1n2C
5. Nc1cccc(S(=O)(=O)N2CCN(S(=O)(=O)c3c(F)cccc3F)CC2)c1
6. O=S(=O)(c1ccc2ccccc2c1)N1CCN(S(=O)(=O)c2c(F)cccc2F)CC1

output:
1. 0.044 µM
2. > 35 µM
3. 0.209 µM
4. 0.063 µM
5. 0.0919 µM
6. 0.066 µM

Look at each molecule and report its AC50.
1. O=S(=O)(c1ccc2c(c1)OCCO2)N1CCN(S(=O)(=O)c2ccc(F)cc2F)CC1
2. CCc1cc2c(s1)c1cnn(Cc3ccccc3F)c(=O)c1n2C
3. C[C@H]1CN(S(=O)(=O)c2ccc3c(c2)OCCO3)CCN1S(=O)(=O)c1c(F)cccc1F

output:
1: 0.124 µM; 2: 0.1 µM; 3: 2.96 µM

Look at each molecule and report its AC50.
1. CSc1cc2c(s1)c1cnn(Cc3ccccc3F)c(=O)c1n2C
2. Nc1cccc(S(=O)(=O)N2CCCN(S(=O)(=O)c3ccc4c(c3)OCCO4)CC2)c1
3. Cc1cc2c(s1)c1cnn(Cc3ccccc3)c(=O)c1n2C
4. O=S(=O)(c1cccc(F)c1)N1CCN(S(=O)(=O)c2ccc3c(c2)OCCO3)CC1
5. COc1cc(F)c(S(=O)(=O)N2CCN(S(=O)(=O)c3cccc(N)c3)CC2)c(F)c1

output:
1. 0.024 µM
2. 0.0326 µM
3. 0.062 µM
4. 0.316 µM
5. 0.0231 µM
